# Experimental System: Human M1 PK (Homo sapiens)
# Construct: His tag; made in house; host or cells: E. coli BL-21 (DE3); construct a gift of Dr. L. Cantley
# Sequence (P14618 1-531 isoform P14618-2): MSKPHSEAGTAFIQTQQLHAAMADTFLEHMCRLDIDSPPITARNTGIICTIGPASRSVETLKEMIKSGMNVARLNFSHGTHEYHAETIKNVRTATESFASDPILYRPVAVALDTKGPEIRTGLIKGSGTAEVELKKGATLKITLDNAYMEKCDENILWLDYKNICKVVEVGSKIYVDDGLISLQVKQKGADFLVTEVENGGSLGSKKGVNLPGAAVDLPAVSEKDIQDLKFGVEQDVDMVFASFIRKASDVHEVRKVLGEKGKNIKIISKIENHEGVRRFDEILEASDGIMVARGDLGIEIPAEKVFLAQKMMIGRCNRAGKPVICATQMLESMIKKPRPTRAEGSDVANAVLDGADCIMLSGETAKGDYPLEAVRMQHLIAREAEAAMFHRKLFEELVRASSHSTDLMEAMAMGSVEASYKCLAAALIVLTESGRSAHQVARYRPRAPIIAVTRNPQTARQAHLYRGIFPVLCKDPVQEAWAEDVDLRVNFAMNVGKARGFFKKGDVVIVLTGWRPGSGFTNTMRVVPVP
# Assay Explanation: Human PK selectivity, LDH-coupled enzyme assay
# Type: biochemical
# Setup Conditions: at 10 μM; read-out: % Inhibition Human M1
Recorded Endpoint: inhibition at 10 µM (%)
Entry rule: numbers only, all in %.

Known results for compounds:
>  <Compound>
Brc1ccc2cc(-c3nc4ccccc4s3)[nH]c2c1 [Compound 22a]

>  <inhibition at 10 µM [%]>
12.4

$$$$
>  <Compound>
Brc1ccc2cc(-c3cc4ccc(Br)cc4[nH]3)[nH]c2c1 [Compound 10b, 6,6′-Dibromo-1H,1′H-2,2′-biindole]

>  <inhibition at 10 µM [%]>
10.3

$$$$
>  <Compound>
Brc1ccc2c(c1)cc(-c1cc3ccc(Br)cc3[nH]1)n2CCN1CCOCC1 [Compound 20b]

>  <inhibition at 10 µM [%]>
13.1

$$$$

Now take the following compound into account.
Name the recorded inhibition at 10 µM for Cn1c(-c2cc3ccc(Br)cc3[nH]2)cc2cc(Br)ccc21 [Compound 12a] . 13.9

###

Catalogue of compounds with associated pIC50
# Experimental System: MRSA PK (Staphylococcus aureus)
# Construct: His tag (pET-28a(+) vector) (N); made in house; host or cells: E. coli BL-21 (DE3)
# Sequence (Q6GG09 whole entry): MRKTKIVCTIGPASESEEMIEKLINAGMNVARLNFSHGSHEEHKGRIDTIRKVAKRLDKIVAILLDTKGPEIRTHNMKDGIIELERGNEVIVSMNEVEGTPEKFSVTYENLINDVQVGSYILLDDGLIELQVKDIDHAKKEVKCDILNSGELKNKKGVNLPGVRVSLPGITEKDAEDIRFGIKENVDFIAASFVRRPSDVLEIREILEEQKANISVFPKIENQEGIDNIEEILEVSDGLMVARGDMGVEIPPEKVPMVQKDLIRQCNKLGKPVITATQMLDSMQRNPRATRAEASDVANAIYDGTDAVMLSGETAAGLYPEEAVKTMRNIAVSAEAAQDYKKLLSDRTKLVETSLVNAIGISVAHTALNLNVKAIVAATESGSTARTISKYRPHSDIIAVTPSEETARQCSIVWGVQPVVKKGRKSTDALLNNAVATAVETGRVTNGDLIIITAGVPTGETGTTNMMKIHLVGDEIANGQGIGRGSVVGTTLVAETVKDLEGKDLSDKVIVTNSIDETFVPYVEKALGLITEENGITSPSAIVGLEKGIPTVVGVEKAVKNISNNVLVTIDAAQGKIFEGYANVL
# Assay Explanation: MRSA PK activity, continuous LDH-coupled assay
# Format: biochemical, S. aureus (MRSA strain Sanger 252)
Lab note: report pIC50 as minus log10 of the concentration in molar units, number only.

>  <Cpd Smiles>
O=C(Nc1nc2cc(Br)ccc2s1)c1cc2cc(Br)ccc2[nH]1

>  <Experimental System>
MRSA PK (Staphylococcus aureus)

>  <pIC50>
8.09

$$$$

Now take the following compound into account.
State its pIC50 on MRSA PK (Staphylococcus aureus): Brc1ccc(-c2cc3ccc(Br)cc3[nH]2)cc1 7.24

###

# Tested on: S. aureus ATCC 29213
# Assay Explanation: In vitro susceptibility, broth microdilution MIC
# Assay type: cell-based, Staphylococcus aureus
# Setup Conditions: Staphylococcus aureus, ATCC29213, Tables 1-6 and text; minimum concentration to give >98% inhibition of growth; read-out: MIC
Recorded Endpoint: MIC

>  <Molecule>
O=C(Nc1ccc(Br)cc1)c1cc2ccccc2[nH]1

>  <Result Value>
> 32 µg/mL

$$$$
>  <Molecule>
Brc1ccc2cc(-c3cc4ccccc4[nH]3)[nH]c2c1 [Compound 10a, 6-Bromo-1H,1′H-2,2′-biindole]

>  <Result Value>
2 µg/mL

$$$$
>  <Molecule>
O=C(Nc1nc2ccc(Br)cc2s1)c1ccc(Br)cc1O

>  <Result Value>
> 64 µg/mL

$$$$

Now take the following molecule into account.
Name the recorded MIC for CC(=O)c1c(/C=C/c2ccccc2)[nH]c2cc(Br)ccc12 [Compound 38a] . > 64 µg/mL

###

Catalogue of molecules with associated MIC
# Tested on: S. aureus ATCC 29213
# Assay Explanation: In vitro susceptibility, broth microdilution MIC
# Assay type: cell-based, Staphylococcus aureus
# Setup Conditions: Staphylococcus aureus, ATCC29213, Table 8; tested at least in duplicate, differing values all given; read-out: MIC
Entry rule: numbers only, all in µg/mL.

>  <Molecule>
O=C(c1c(CCc2ccc(Cl)cc2)[nH]c2cc(Br)ccc12)C(F)(F)F [Compound 167]

>  <Experimental System>
S. aureus ATCC 29213

>  <Unit String>
µg/mL

>  <MIC>
2

$$$$

Name the recorded MIC for O=C(O)c1cc(Br)cc2[nH]c(CCc3ccc(Cl)cc3)cc12 [Compound 159] . 64

Name the recorded MIC for O=C(c1c(/C=C/c2ccc(Cl)cc2)[nH]c2cc(Br)c(F)cc12)C(F)(F)F [Compound 175] . 2
